Recorded values, source patent US20250275959A1.

target.desc: hACSL5 (Homo sapiens (Human), UniProt Q9ULC5)
Sequence (Q9ULC5 33-683): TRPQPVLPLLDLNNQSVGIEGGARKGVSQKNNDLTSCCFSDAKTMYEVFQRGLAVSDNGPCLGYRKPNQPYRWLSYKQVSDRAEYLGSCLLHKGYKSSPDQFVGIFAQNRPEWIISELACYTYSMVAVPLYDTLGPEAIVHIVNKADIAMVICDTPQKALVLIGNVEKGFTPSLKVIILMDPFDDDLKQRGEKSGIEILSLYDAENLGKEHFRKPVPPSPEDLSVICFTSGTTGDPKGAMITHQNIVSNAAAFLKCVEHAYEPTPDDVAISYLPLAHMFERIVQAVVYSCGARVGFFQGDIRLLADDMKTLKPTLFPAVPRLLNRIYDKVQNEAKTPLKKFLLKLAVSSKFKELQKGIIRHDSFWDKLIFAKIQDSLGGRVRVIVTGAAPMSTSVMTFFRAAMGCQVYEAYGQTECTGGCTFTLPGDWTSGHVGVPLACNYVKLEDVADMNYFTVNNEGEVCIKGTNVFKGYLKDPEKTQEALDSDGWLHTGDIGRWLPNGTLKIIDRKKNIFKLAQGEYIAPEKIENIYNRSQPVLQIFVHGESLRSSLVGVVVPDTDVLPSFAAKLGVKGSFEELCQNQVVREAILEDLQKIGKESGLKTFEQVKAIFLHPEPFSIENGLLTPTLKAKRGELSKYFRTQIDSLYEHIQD
experiment.notes: Human ACSL5 coupled enzyme Amplex Red assay
Type: biochemical
experimental.setup: read-out: hACSL5 IC50
Method: Human ACSL5 (33-683) was cloned with a C-terminal 6 His tag and expressed in insect cells (sf9) as per standard insect cell expression protocols. Human ACSL5 was enriched by affinity nickel affinity chromatography followed by Superdex S200 gel filtration column equilibrated in 20 mM HEPES pH 7.8, 500 mM NaCl, 1 mM TCEP, 5% glycerol, 0.1% Triton X^100. Inhibition of ACSL5 enzyme activity was monitored with a coupled enzyme Amplex Red assay. The assay is carried out in 384-well microtiterplates. […]
pIC50: −log10 of the molar value.
metric.name: pIC50

Please review the following examples before continuing.
| molecule | pIC50 |
| --- | --- |
| CC[C@@H](Oc1ccc(C(=O)NS(=O)(=O)N2CCN(C3CC3)CC2)c(F)c1F)c1ccc(OCC2CC2)cn1 | > 7.00 |
| CC[C@@H](Oc1ccc(C(=O)NS(=O)(=O)N2CC3CCC(C2)N3C)c(F)c1F)c1ccc(Oc2ccccn2)cn1 | > 7.00 |
| CC[C@@H](Oc1ccc(C(=O)NS(=O)(=O)N2CC3CCC(C2)N3C)c(F)c1F)c1ccc(OCC2CC2)cn1 | > 7.00 |
| CC[C@@H](Oc1ccc(C(=O)NS(=O)(=O)c2ccc(NC3CCN(C)CC3)nc2)c(F)c1F)c1ccc(OCC2CC2)cn1 | > 7.00 |
| [2H]C([2H])([2H])N1CCC(Oc2ccc(S(=O)(=O)NC(=O)c3ccc(O[C@H](CC)c4ccc(OCC5CC5)cn4)c(F)c3F)cc2)CC1 | > 7.00 |

Name the recorded pIC50 for CCOc1ccc(C(C)Oc2ccc(C(=O)NS(=O)(=O)c3ccc(OCCn4ccnc4)cc3)c(F)c2F)nc1 (stereo not shown) .
6.30 to 7.00

Name the recorded pIC50 for CC[C@@H](Oc1ccc(C(=O)NS(=O)(=O)N2CC3(CC(OC4CCN(C)CC4)C3)C2)c(F)c1F)c1ccc(OCC2CC2)cn1 .
6.30 to 7.00
